target: Serine/threonine-protein kinase PLK1 (Homo sapiens, UniProt P53350)
Sequence (P53350 whole entry): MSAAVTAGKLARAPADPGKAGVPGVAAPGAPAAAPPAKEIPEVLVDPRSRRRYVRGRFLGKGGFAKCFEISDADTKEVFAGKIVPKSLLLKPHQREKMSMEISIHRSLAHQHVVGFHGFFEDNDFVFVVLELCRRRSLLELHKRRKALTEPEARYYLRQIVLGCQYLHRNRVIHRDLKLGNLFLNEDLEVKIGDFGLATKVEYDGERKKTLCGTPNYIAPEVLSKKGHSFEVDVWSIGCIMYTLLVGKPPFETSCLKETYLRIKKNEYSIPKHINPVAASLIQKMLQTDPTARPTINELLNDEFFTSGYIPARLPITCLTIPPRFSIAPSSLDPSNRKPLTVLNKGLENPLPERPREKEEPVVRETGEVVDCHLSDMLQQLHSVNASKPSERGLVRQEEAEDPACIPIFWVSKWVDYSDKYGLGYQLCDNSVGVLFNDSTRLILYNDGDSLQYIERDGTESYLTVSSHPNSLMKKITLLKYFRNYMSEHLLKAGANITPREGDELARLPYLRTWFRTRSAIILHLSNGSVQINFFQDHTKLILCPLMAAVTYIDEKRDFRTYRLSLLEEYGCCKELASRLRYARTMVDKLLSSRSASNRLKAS
For each record, write down the corresponding pIC50.
Answers are plain numbers, as −log10 of the molar value.

COc1ccccc1-n1nc(C)c2cnc(N[C@@H](C)c3ccccc3)cc21; 4.84

Need pIC50 for each of these compounds.
1. Cc1ccc(-n2nc(C)c3cnc(N[C@@H](C)c4ccccc4)cc32)cc1
2. Cc1nn(-c2cc(Cl)cc(CCC(N)=O)c2)c2cc(N[C@@H](C)c3ccccc3)ncc12

Found:
1. 5.34
2. 7.49

Need pIC50 for each of these compounds.
1. Cc1nn(-c2cccc(F)c2)c2cc(N[C@@H](C)c3ccccc3)ncc12
2. COc1cccc(-n2nc(C)c3cnc(N[C@@H](C)c4ccccc4)cc32)c1
3. Cc1nn(-c2cc(Cl)cc(CCCN)c2)c2cc(N[C@@H](C)c3ccccc3)ncc12
4. Cc1nn(-c2cccc(S(C)(=O)=O)c2)c2cc(N[C@@H](C)c3ccccc3)ncc12
5. Cc1nn(-c2ccccc2C(N)=O)c2cc(N[C@@H](C)c3ccccc3)ncc12

Found:
1. 6.33
2. 5.23
3. 7.23
4. 6.65
5. 7.38

---

# Serine/threonine-protein kinase PLK1 (Homo sapiens, UniProt P53350): pIC50 values follow
Numbers only, as −log10 of the molar value.

Previously resolved entries follow.
CC(=O)Nc1ccccc1-c1cc(Cl)cc(-n2nc(C)c3cnc(N[C@@H](C)c4ccccc4)cc32)c1; 6.68
Cc1nn(-c2ccc(F)cc2)c2cc(N[C@@H](C)c3ccccc3)ncc12; 5.49
Cc1nn(-c2cc(Cl)cc(CCC(=O)O)c2)c2cc(N[C@@H](C)c3ccccc3)ncc12; 7.68

Please examine the following record next.
Lookup: Can you look up the measured pIC50 of Cc1nn(-c2cc(Cl)cc(CCC(=O)NCCO)c2)c2cc(N[C@@H](C)c3ccccc3)ncc12 for me?
Found: 7.32
